Molecular target: 3-hydroxy-3-methylglutaryl-coenzyme A reductase (Homo sapiens, UniProt P04035)
Sequence (P04035 whole entry): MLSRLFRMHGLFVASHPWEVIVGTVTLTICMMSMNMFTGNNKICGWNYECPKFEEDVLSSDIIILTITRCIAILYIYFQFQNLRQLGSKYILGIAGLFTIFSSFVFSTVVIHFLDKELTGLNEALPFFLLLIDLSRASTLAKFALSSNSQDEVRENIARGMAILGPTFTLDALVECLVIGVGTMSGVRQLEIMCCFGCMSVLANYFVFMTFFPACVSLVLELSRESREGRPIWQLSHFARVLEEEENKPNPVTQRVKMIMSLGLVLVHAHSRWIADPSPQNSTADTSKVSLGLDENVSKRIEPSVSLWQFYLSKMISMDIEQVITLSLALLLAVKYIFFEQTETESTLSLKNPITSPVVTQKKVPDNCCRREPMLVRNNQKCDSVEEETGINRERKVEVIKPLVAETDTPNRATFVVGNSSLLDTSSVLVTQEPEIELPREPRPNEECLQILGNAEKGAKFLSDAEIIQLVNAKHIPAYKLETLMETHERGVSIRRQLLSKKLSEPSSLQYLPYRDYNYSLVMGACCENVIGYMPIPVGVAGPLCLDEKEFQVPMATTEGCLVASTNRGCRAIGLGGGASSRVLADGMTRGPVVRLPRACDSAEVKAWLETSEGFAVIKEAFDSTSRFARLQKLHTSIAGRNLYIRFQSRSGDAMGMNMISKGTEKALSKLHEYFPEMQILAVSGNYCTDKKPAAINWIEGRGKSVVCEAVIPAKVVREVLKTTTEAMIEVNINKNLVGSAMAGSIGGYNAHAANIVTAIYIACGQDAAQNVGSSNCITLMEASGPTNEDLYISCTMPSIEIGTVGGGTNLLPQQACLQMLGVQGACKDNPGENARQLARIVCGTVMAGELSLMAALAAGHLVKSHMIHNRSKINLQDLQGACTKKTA
Assay: Inhibition of recombinant HMG-CoA reductase (unknown origin) after 10 mins by spectrophotometric analysis
measured endpoint: IC50

>>> test_result("CCC(C)(C)C(=O)O[C@H]1C[C@@H](C)C=C2C=C[C@H](C)[C@H](CC[C@@H](O)C[C@@H](O)CC(=O)NO)[C@H]21")
"13.1 nM"
>>> test_result("CC[C@H](C)C(=O)O[C@H]1C[C@@H](C)C=C2C=C[C@H](C)[C@H](CC[C@@H](O)C[C@@H](O)CC(=O)NO)[C@H]21")
"16.8 nM"
>>> test_result("CC(C)c1c(C(=O)Nc2ccccc2)c(-c2ccccc2)c(-c2ccc(F)cc2)n1CC[C@@H](O)C[C@@H](O)CC(=O)NO")
"12.3 nM"

Consider now this further compound.
query: Sample O=C(CCCCCCC(=O)Nc1ccccc1)NO — what was its IC50?
result: > 10000 nM
